These measurements were taken from paper PMC4387373.

Assay type: in vivo, human
condition_description: human, plasma, oral
observed_property: concentration at 8 h (ng/mL)

structure	concentration at 8 h / ng/mL
COc1ccccc1Oc1c(NS(=O)(=O)c2ccc(C(C)(C)C)cc2)nc(-c2ncccn2)nc1OCCO	1230
CCCc1nn(C)c2c(=O)[nH]c(-c3cc(S(=O)(=O)N4CCN(C)CC4)ccc3OCC)nc12	900

----------
run_description: Plasma concentrations of protease inhibitors
Type: in vivo, human
condition_description: human, plasma, oral
observed_property: concentration at 6 h (ng/mL)
Numbers only; they are read as ng/mL.

The recorded concentration at 6 h for CC(C)CN(C[C@@H](O)[C@H](Cc1ccccc1)NC(=O)O[C@H]1CCOC1)S(=O)(=O)c1ccc(N)cc1 [amprenavir] is 2170

----------
Type: in vivo, human
condition_description: human, plasma, oral
observed_property: concentration at 4 h (ng/mL)

a. COc1ccccc1Oc1c(NS(=O)(=O)c2ccc(C(C)(C)C)cc2)nc(-c2ncccn2)nc1OCCO [bosentan]
b. CCCc1nn(C)c2c(=O)[nH]c(-c3cc(S(=O)(=O)N4CCN(C)CC4)ccc3OCC)nc12 [sildenafil]
Compare a and b by numeric concentration at 4 h and name the larger one. The response must carry the label of the picked entry.
a

----------
run_description: Plasma concentrations of protease inhibitors
Type: in vivo, human
condition_description: human, plasma, oral
observed_property: concentration at 8 h (ng/mL)
Numbers only; they are read as ng/mL.

The recorded concentration at 8 h for CC(C)CN(C[C@@H](O)[C@H](Cc1ccccc1)NC(=O)O[C@H]1CCOC1)S(=O)(=O)c1ccc(N)cc1 is 1890

----------
run_description: Plasma concentrations of protease inhibitors
Format: in vivo, human
condition_description: human, plasma, oral
observed_property: concentration at 4 h (ng/mL)
Numbers only; they are read as ng/mL.

The recorded concentration at 4 h for CC(C)CN(C[C@@H](O)[C@H](Cc1ccccc1)NC(=O)O[C@H]1CCOC1)S(=O)(=O)c1ccc(N)cc1 [amprenavir] is 3960

----------
run_description: Plasma concentrations of protease inhibitors
Format: in vivo, human
condition_description: human, plasma, oral
observed_property: concentration at 2 h (ng/mL)
Numbers only; they are read as ng/mL.

The recorded concentration at 2 h for CC(C)CN(C[C@@H](O)[C@H](Cc1ccccc1)NC(=O)O[C@H]1CCOC1)S(=O)(=O)c1ccc(N)cc1 is 1680

----------
Format: in vivo, human
condition_description: human, plasma, oral
observed_property: concentration at 6 h (ng/mL)

structure	observed_property	recorded_number
COc1ccccc1Oc1c(NS(=O)(=O)c2ccc(C(C)(C)C)cc2)nc(-c2ncccn2)nc1OCCO	concentration at 6 h	1310
CCCc1nn(C)c2c(=O)[nH]c(-c3cc(S(=O)(=O)N4CCN(C)CC4)ccc3OCC)nc12	concentration at 6 h	1730
